assay: Functional metabolic assay to measure dose dependent changes in cell viability from drug treatment in Vero E6/TMPRSS2 cells (cotreated with P-gp inhibitor, Elacridar). […] Cytotoxicity is reported via measuring absorbance and analysis of MTT/MTS assays in uninfected cells. The assay has been performed by Icahn School of Medicine at Mount Sinai.; format: toxicity, cell-based, VeroE6/TMPRSS2; conditions: chlorocebus sabaeus, veroe6/tmprss2; p-gp concentration 2 uM
Documented CC10 across a set of compounds

>>> df
                                item_smiles  measured_metric  observed_result
0  NCc1cccc([C@@H]2C[C@H]2c2cc(Cl)cc(NC(=O)OCc3ccccc3)c2)c1             CC10          > 50 µM
1  O=C(Nc1cc(Cl)cc(S(=O)(=O)Nc2cccc(-c3nn[nH]n3)c2)c1)OCc1ccccc1             CC10          > 50 µM
2  NCc1ccc(F)c(NC(=O)c2cc(Cl)cc(NC(=O)OCc3ccccc3)c2)c1             CC10          > 50 µM
3  Cc1c(C(=O)Nc2cc([C@H]3CCOC3)ccn2)cc(C2CC2)n1C             CC10          > 50 µM
4  CNC(=O)[C@H](Nc1cc(Cl)cc(NC(=O)OCc2ccccc2)c1)c1cccc(-c2nn[nH]n2)c1             CC10          > 50 µM
5  O=C(Nc1ccc2c(c1)CNC2)c1cc(Cl)ccc1SC1CCCC1             CC10         41.64 µM
6     COc1cc(Br)cc(C(=O)Nc2ccc3c(c2)CNC3)c1             CC10         4.817 µM
7  NCCc1cccc(NC(=O)[C@H]2[C@H]3CCCCC[C@H]3[C@H]2NC(=O)OCc2ccccc2)c1             CC10         0.282 µM
8  O=C(O)COc1cccc(NC(=O)c2cc(Cl)cc(NC(=O)OCc3ccccc3)c2)c1             CC10          > 50 µM
9  O=C(NC1CCOCC1)[C@H](Nc1ccc2c(c1)CNC2)c1cc(Cl)cc(C2CC2)c1             CC10          > 50 µM

Request: Dear colleague, please send me the reported CC10 for "O=C(O)CCc1ccc(NC(=O)c2cc(Cl)cc(NC(=O)OCc3ccccc3)c2)cc1" when you can.
Result: > 50 µM

Request: Dear colleague, please send me the reported CC10 for "CCCC(=O)Nc1cc(Cl)cc(C(=O)Nc2cccc(CN)c2)c1" when you can.
Result: > 50 µM

Request: Dear colleague, please send me the reported CC10 for "CCOc1cccc(-c2ccc(S(=O)(=O)Nc3ccc(Cl)cc3C(=O)O)cc2C)c1" when you can.
Result: 0.027 µM

Request: Dear colleague, please send me the reported CC10 for "O=C(Nc1cc(Cl)cc(C(=O)NCc2ccc(-c3nnn[nH]3)cc2)c1)OCc1ccccc1" when you can.
Result: > 50 µM

Request: Dear colleague, please send me the reported CC10 for "Cc1ccc2cc(Cl)cc(C(=O)Nc3ccc4c(c3)CNC4)c2n1" when you can.
Result: 2.835 µM

====

Documented CC50 across a set of molecules
experiment: Functional CPE-based assay to measure dose dependent changes in cell viability from drug treatment in Vero E6 miRFP670 cells (cotreated with P-gp inhibitor, CP100356). Cells are treated with antiviral candidates that have been serially diluted. Cytotoxicity is reported via analysis of MTS assays in uninfected cells. The assay has been performed by KU Leuven.; assay type: toxicity, Vero C1008; conditions: chlorocebus sabaeus, Vero E6 miRFP670 cells, with CP100356 (P-gp inhibitor, concentration not stated); p-gp concentration 500 nM
Kindly provide the numeric value in µM only, without the unit symbol.

# count of solved cases: 3
>>> df
                                item_smiles  observed_result
0  Cc1cccc(-c2nc3c(C(=O)Nc4ccc5c(c4)CNC5)cc(F)cc3[nH]2)c1             2.76
1  O=C(Nc1ccc2c(c1)CNC2)c1cc(Cl)cc2[nH]c(-c3ccnn3C3CC3)nc12             1.78
2  Cn1c(=O)[nH]c2c(C(=O)Nc3ccc4c(c3)CNC4)cc(Br)cc21             34.2

Request: Dear colleague, please send me the reported CC50 for "O=C(Nc1cc(Cl)cc(-c2cnn(Cc3ccc(C(=O)O)cc3)c2)c1)OCc1ccccc1" when you can.
Result: 35.5

Request: Dear colleague, please send me the reported CC50 for "O=C(Nc1ccc2c(c1)CNC2)c1cc(F)cc2c1CCC2" when you can.
Result: 33

Request: Dear colleague, please send me the reported CC50 for "O=C(Nc1ccc2c(c1)CN[C@H]2CC1CC1)c1cc(F)cc2[nH]ncc12" when you can.
Result: 11.8

Request: Dear colleague, please send me the reported CC50 for "Cc1cccc(-c2nc3c(C(=O)Nc4ccc5c(c4)CNC5)cc(Cl)cc3[nH]2)c1O" when you can.
Result: 3.03

Request: Dear colleague, please send me the reported CC50 for "O=C(Nc1ccc2c(c1)CNC2)c1cc(Br)cc2[nH]c([C@H]3CCOC3)nc12" when you can.
Result: 5.11

Request: Dear colleague, please send me the reported CC50 for "N#C[C@H](Nc1ccc2c(c1)CNC2)c1cc(Cl)cc(C2CC2)c1" when you can.
Result: 46.5

Request: Dear colleague, please send me the reported CC50 for "CCc1cc(C(=O)Nc2cccc(-c3nnn[nH]3)c2)sc1-c1ccc(Cl)cc1" when you can.
Result: 38.6

Request: Dear colleague, please send me the reported CC50 for "O=C(NCC(F)F)[C@H](Nc1cc2c(cc1Br)CNC2)c1cc(Cl)cc(C2CC2)c1" when you can.
Result: 5.82

====

test: Functional assay to measure dose dependent changes in cell viability from drug treatment in Vero E6 miRFP670 cells that are infected with Dengue virus type 2 New Guinea C. Cells are treated with antiviral candidates that have been serially diluted. Cytotoxicity is reported via via analysis of DAPI count using high-content imager. The assay has been performed by KU Leuven.; type: toxicity, cell-based, Vero C1008; settings: chlorocebus sabaeus
measured metric: CC50

Request: Dear colleague, please send me the reported CC50 for "O=C(Nc1ccc2c(c1)CNC2)c1cc(Cl)cc2[nH]ncc12" when you can.
Result: 6.72 µM

====

assay: Functional metabolic assay to measure dose dependent changes in cell viability from drug treatment in Vero E6/TMPRSS2 cells (cotreated with P-gp inhibitor, Elacridar). […] Cytotoxicity is reported via measuring absorbance and analysis of MTT/MTS assays in uninfected cells. The assay has been performed by Icahn School of Medicine at Mount Sinai.; type: toxicity, cell-based, VeroE6/TMPRSS2; conditions: chlorocebus sabaeus, Vero E6/TMPRSS2 cells, with Elacridar (P-gp inhibitor, concentration not stated); p-gp concentration 2 uM
Documented CC50 across a set of compounds

Request: Dear colleague, please send me the reported CC50 for "O=C(Nc1cc(Cl)cc(S(=O)(=O)Nc2cccc(-c3nn[nH]n3)c2)c1)OCc1ccccc1" when you can.
Result: > 50 µM

Request: Dear colleague, please send me the reported CC50 for "CCOc1cccc(-c2ccc(S(=O)(=O)Nc3ccc(Cl)cc3C(=O)O)cc2C)c1" when you can.
Result: > 50 µM

Request: Dear colleague, please send me the reported CC50 for "CCc1cc(Cl)cc(C(=O)Nc2ccc3c(c2)CNC3)c1" when you can.
Result: > 50 µM

Request: Dear colleague, please send me the reported CC50 for "O=C(Nc1ccc2c(c1)CNC2)c1cccc2[nH]ncc12" when you can.
Result: > 50 µM

Request: Dear colleague, please send me the reported CC50 for "NCc1cccc(CCc2cc(Cl)cc(NC(=O)OCc3ccccc3)c2)c1" when you can.
Result: 29.7 µM

Request: Dear colleague, please send me the reported CC50 for "O=C(Nc1cc(Cl)cc(N[C@H](C#CCO)c2ccc(-c3nn[nH]n3)cc2)c1)OCc1ccccc1" when you can.
Result: > 50 µM

====

test: Functional assay to measure dose dependent changes in cell viability from drug treatment in Vero E6 miRFP670 cells (cotreated with P-gp inhibitor, CP100356) that are infected with Dengue virus type 2 New Guinea C. […] Cytotoxicity is reported via via analysis of DAPI count using high-content imager. The assay has been performed by KU Leuven.; type: toxicity, cell-based, Vero C1008; details: chlorocebus sabaeus, vero c1008; p-gp concentration 500 nM
measured metric: log10 CC50 (log10 of the value in µM)
Please note: log10 values; quantity CC50; unit µM.

# count of solved cases: 5
                                item_smiles  observed_result
0  Cc1cccc(-c2nc3c(C(=O)Nc4ccc5c(c4)CNC5)cc(Cl)cc3[nH]2)c1O             0.95
1  O=C(Nc1cc(Cl)cc(-c2ccc3[nH]c(C(=O)O)cc3c2)c1)OCc1ccccc1             1.16
2  O=C(NCC(F)(F)F)c1cc(Cl)c(F)cc1NS(=O)(=O)c1ccc(Oc2ccccc2Cl)cc1             0.75
3  CCc1cc(Br)cc2c(Cc3ccc(-c4nnn[nH]4)cc3)c[nH]c12             1.27
4  O=C(Nc1ccc2c(c1)CNC2)c1cc(F)cc2[nH]c(-c3cnc(C4CC4)o3)nc12             0.41

Now turn to the next compound.
Request: Dear colleague, please send me the reported log10 CC50 for "Cc1c(C(=O)Nc2cc([C@H]3CCOC3)ccn2)cc(C2CC2)n1C" when you can.
Result: 1.47
